# credit: ChEMBL document CHEMBL3885861

Species: Rattus norvegicus
Test: Open TG-GATES - Regimen: Daily Repeat
Type: toxicity, organism-based, Sprague-Dawley
Set-up: regimen Daily Repeat, gender Male, age 6 weeks
Details: in vivo, po, 0 mg/kg, 72 h, tissue Blood, route gavage, dose level Control, time 3 day
metric: Ht (%)

1) O=c1ccc2ccccc2o1
40.7
2) CC(S)C(=O)NCC(=O)O (centres undefined)
40.8
3) NS(=O)(=O)c1cc(C(=O)O)c(NCc2ccco2)cc1Cl [FUROSEMIDE]
40.3
4) CC(=O)[C@@]1(O)CC[C@H]2[C@@H]3C=C(Cl)C4=CC(=O)CC[C@]4(C)[C@H]3CC[C@@]21C
40.9
